# Tested on: PAD
# experimental_protocol: qHTS profiling for inhibitors of Plasmodium falciparum proliferation (AID 504749); further: nearly all actives have a fitted effect of over 60% in size
# condition_description: P. falciparum in erythrocytes, SYBR Green DNA, 72 h; series mostly up to 28.7 µM
Records with an inconclusive call do not appear. The source made the active and inactive calls. The call rests on the fitted dose curve; in most records, active means well fitted inhibition curve with a large enough effect; inconclusive means small, poorly fitted or top-dose-only effect; inactive means flat fitted curve, though single readings scatter.
Classes to choose from: active, inactive

Example entries begin here.
compound="CCC(=O)O[C@]1(C(=O)CCl)[C@@H](C)CC2C3C[C@H](F)C4=CC(=O)C=CC4(C)[C@@]3(F)C(O)CC21C (stereo partly specified)" answer_label=active
compound=CO/N=C(/C(=O)N[C@@H]1C(=O)N2C(C(=O)O)=C(CSc3cnns3)CS[C@H]12)c1csc(N)n1 answer_label=inactive
compound="CC(C)C(=O)OCC(=O)[C@@]12OC(C3CCCCC3)O[C@@H]1CC1C3CCC4=CC(=O)C=C[C@]4(C)C3[C@@H](O)C[C@@]12C (stereo partly specified)" answer_label=active
compound="COC1CC2CCC(C)[C@](O)(O2)C(=O)C(=O)N2CCCCC2C(=O)OC(C(C)CC2CCC(O)C(OC)C2)CC(=O)C(C)/C=C(/C)C(O)C(OC)C(=O)C(C)CC(C)C=CC=C/C=C\\1C (stereo partly specified)" answer_label=active
compound="OCC1O[C@H](O[C@H]2C(O)C(O)C(O)O[C@@H]2CO)C(O)C(O)C1O (stereo partly specified)" answer_label=inactive
compound="CCC(=O)OC1C(N(C)C)CC(C)O[C@H]1O[C@H]1[C@H](C)[C@@H](O[C@H]2CC(OC)[C@@H](O)C(C)O2)[C@H](C)C(=O)O[C@@H](CC)[C@](C)(O)[C@@H](O)[C@H](C)C(=O)[C@@H](C)C[C@]1(C)O (stereo partly specified)" answer_label=inactive
compound="CC(C)(C)C(=O)OCC(=O)C1CCC2C3CCC4=CC(=O)CCC4(C)C3CCC12C (stereo unspecified)" answer_label=inactive
compound=CO[C@H]1/C=C/O[C@@]2(C)Oc3c(C)c(O)c4c(O)c(c5c(c4c3C2=O)NC2(CCN(CC(C)C)CC2)N=5)=NC(=O)/C(C)=C\C=C\[C@H](C)[C@H](O)[C@@H](C)[C@@H](O)[C@@H](C)[C@H](OC(C)=O)[C@@H]1C answer_label=active

Exercise: Each compound tested received a call. Report the one for C[C@]12CC[C@@H]3c4ccc(O)cc4CC[C@H]3[C@@H]1C[C@H](O)C2O (stereo partly specified) .
Key: inactive

Exercise: Could you please tell me the result logged for `CNc1cc(OC)c(C(=O)N[C@@H]2CCN(Cc3ccccc3)[C@H]2C)cc1Cl` in this assay?
Key: inactive

Exercise: Returns: the outcome recorded for C[C@]12C=CC(=O)N[C@@H]1CC[C@@H]1C2CC[C@]2(C)C(C(=O)Nc3cc(C(F)(F)F)ccc3C(F)(F)F)CC[C@@H]12 (stereo partly specified) in this assay.
Key: inactive

Exercise: // outcome(item) with item = `CCCSS/C(CCO)=C(/C)N(C=O)Cc1cnc(C)nc1N`
Key: inactive

Exercise: Tell me the recorded outcome of this test for NC(=O)C1CC2(NC(=O)NC2=O)c2cc(F)ccc2O1 (stereo unspecified) .
Key: inactive
